Species: Rattus norvegicus
Test: Open TG-GATES - Regimen: Single
Assay type: toxicity, organism-based, Sprague-Dawley
Set-up: regimen Single, gender Male, age 6 weeks
Conditions: in vivo, po, 0 mg/kg, 6 h, route gavage, dose level Control
Known TERMINAL_BW of a selection of compounds
Quick reminder: number only, in g, skip the unit.

>>> value_measured("CC(CN1c2ccccc2Sc2ccccc21)N(C)C (stereo not given)")
210.9
>>> value_measured("C1CCC(C(CC2CCCCN2)C2CCCCC2)CC1 (stereo not given)")
210.1
>>> value_measured("COc1cc([C@@H]2c3cc4c(cc3[C@@H](O[C@@H]3O[C@@H]5CO[C@@H](C)O[C@H]5[C@H](O)[C@H]3O)[C@H]3COC(=O)[C@H]23)OCO4)cc(OC)c1O [ETOPOSIDE]")
198
>>> value_measured("Cc1cccc(Nc2ccccc2C(=O)O)c1C")
214.5
>>> value_measured("C#C[C@]1(O)CC[C@H]2[C@@H]3CCC4=Cc5oncc5C[C@]4(C)[C@H]3CC[C@@]21C")
212.9

Query: TERMINAL_BW lookup needed for CC(=O)Nc1nnc(S(N)(=O)=O)s1 [ACETAZOLAMIDE] , thanks.
Result: 207.4

Query: TERMINAL_BW lookup needed for CN1C(C(=O)Nc2ccccn2)=C(O)c2sc(Cl)cc2S1(=O)=O , thanks.
Result: 219.8

Query: TERMINAL_BW lookup needed for Clc1c(Cl)c(Cl)c(Cl)c(Cl)c1Cl , thanks.
Result: 219.4

Query: TERMINAL_BW lookup needed for CCOC(=O)[C@H](CCc1ccccc1)N[C@@H](C)C(=O)N1CCC[C@H]1C(=O)O , thanks.
Result: 212.8

Query: TERMINAL_BW lookup needed for CN(C)[C@@H]1C(O)=C(C(N)=O)C(=O)[C@@]2(O)C(O)=C3C(=O)c4c(O)cccc4[C@@](C)(O)[C@H]3C[C@@H]12 , thanks.
Result: 181.3

###

Species: Rattus norvegicus
Assay: Open TG-GATES - Regimen: Single
Format: toxicity, organism-based, Sprague-Dawley
Set-up: regimen Single, gender Male, age 6 weeks
Conditions: in vivo, po, 0 mg/kg, 6 h, tissue Blood, route gavage, dose level Control
# if measured WBC < 90 x10_2/uL: 1 (yes)  # else: 0 (no)

// below: answered compounds
>>> label("CN(C)[C@@H]1C(O)=C(C(N)=O)C(=O)[C@@]2(O)C(O)=C3C(=O)c4c(O)cccc4[C@@](C)(O)[C@H]3C[C@@H]12 [TETRACYCLINE]")
"0 (no)"
>>> label("CC(CN1c2ccccc2Sc2ccccc21)N(C)C (stereo not given) [PROMETHAZINE]")
"1 (yes)"
>>> label("CC(=O)Nc1nnc(S(N)(=O)=O)s1 [ACETAZOLAMIDE]")
"1 (yes)"

Next:
Query: Is it true that WBC reported for COc1cc([C@@H]2c3cc4c(cc3[C@@H](O[C@@H]3O[C@@H]5CO[C@@H](C)O[C@H]5[C@H](O)[C@H]3O)[C@H]3COC(=O)[C@H]23)OCO4)cc(OC)c1O [ETOPOSIDE] is less than 90 x10_2/uL?
Result: 0 (no)

###

Species: Rattus norvegicus
Assay: Open TG-GATES - Regimen: Single
Type: toxicity, organism-based, Sprague-Dawley
Design: regimen Single, gender Male, age 6 weeks
Details: in vivo, po, 0 mg/kg, 9 h, tissue Blood, route gavage, dose level Control
observed_property: Hb (g/dL)
Quick reminder: number only, in g/dL, skip the unit.

Query: Hb lookup needed for Clc1c(Cl)c(Cl)c(Cl)c(Cl)c1Cl , thanks.
Result: 13.5

Query: Hb lookup needed for C1CCC(C(CC2CCCCN2)C2CCCCC2)CC1 (centres undefined) , thanks.
Result: 13.2

Query: Hb lookup needed for CC(CN1c2ccccc2Sc2ccccc21)N(C)C (centres undefined) , thanks.
Result: 13.1

Query: Hb lookup needed for CN1C(C(=O)Nc2ccccn2)=C(O)c2sc(Cl)cc2S1(=O)=O , thanks.
Result: 13.3

Query: Hb lookup needed for CN(C)[C@@H]1C(O)=C(C(N)=O)C(=O)[C@@]2(O)C(O)=C3C(=O)c4c(O)cccc4[C@@](C)(O)[C@H]3C[C@@H]12 , thanks.
Result: 13.3

Query: Hb lookup needed for C#C[C@]1(O)CC[C@H]2[C@@H]3CCC4=Cc5oncc5C[C@]4(C)[C@H]3CC[C@@]21C , thanks.
Result: 13.3

Query: Hb lookup needed for Cc1cccc(Nc2ccccc2C(=O)O)c1C , thanks.
Result: 13.6

Query: Hb lookup needed for CCOC(=O)[C@H](CCc1ccccc1)N[C@@H](C)C(=O)N1CCC[C@H]1C(=O)O , thanks.
Result: 13

Query: Hb lookup needed for COc1cc([C@@H]2c3cc4c(cc3[C@@H](O[C@@H]3O[C@@H]5CO[C@@H](C)O[C@H]5[C@H](O)[C@H]3O)[C@H]3COC(=O)[C@H]23)OCO4)cc(OC)c1O [ETOPOSIDE] , thanks.
Result: 13.4

###

Species on record: Rattus norvegicus
Experiment: Open TG-GATES - Regimen: Single
Type: toxicity, organism-based, Sprague-Dawley
Parameters: regimen Single, gender Male, age 6 weeks
Conditions: in vivo, po, 0 mg/kg, 24 h, tissue Plasma, route gavage, dose level Control
observed_property: PL (mg/dL)
Quick reminder: number only, in mg/dL, skip the unit.

Query: PL lookup needed for CN(C)[C@@H]1C(O)=C(C(N)=O)C(=O)[C@@]2(O)C(O)=C3C(=O)c4c(O)cccc4[C@@](C)(O)[C@H]3C[C@@H]12 , thanks.
Result: 155

Query: PL lookup needed for CC(=O)Nc1nnc(S(N)(=O)=O)s1 [ACETAZOLAMIDE] , thanks.
Result: 137.4

Query: PL lookup needed for C#C[C@]1(O)CC[C@H]2[C@@H]3CCC4=Cc5oncc5C[C@]4(C)[C@H]3CC[C@@]21C , thanks.
Result: 140

###

Organism: Rattus norvegicus
Assay: Open TG-GATES - Regimen: Daily Repeat
Format: toxicity, organism-based, Sprague-Dawley
Design: regimen Daily Repeat, gender Male, age 6 weeks
Details: in vivo, po, 0 mg/kg, […], tissue Blood, route gavage, dose level Control, time 7 day
observed_property: RBC (x10_4/ul)
Quick reminder: number only, in x10_4/ul, skip the unit.

Below, each entry is followed by its recorded RBC result.
>>> value_measured("Clc1c(Cl)c(Cl)c(Cl)c(Cl)c1Cl")
651.2
>>> value_measured("CC(=O)Nc1nnc(S(N)(=O)=O)s1 [ACETAZOLAMIDE]")
650.4
>>> value_measured("CCOC(=O)[C@H](CCc1ccccc1)N[C@@H](C)C(=O)N1CCC[C@H]1C(=O)O")
649.6

Query: RBC lookup needed for Cc1cccc(Nc2ccccc2C(=O)O)c1C , thanks.
Result: 650.6

Query: RBC lookup needed for C#C[C@]1(O)CC[C@H]2[C@@H]3CCC4=Cc5oncc5C[C@]4(C)[C@H]3CC[C@@]21C , thanks.
Result: 678.8

Query: RBC lookup needed for CN1C(C(=O)Nc2ccccn2)=C(O)c2sc(Cl)cc2S1(=O)=O , thanks.
Result: 664.6

Query: RBC lookup needed for C1CCC(C(CC2CCCCN2)C2CCCCC2)CC1 (centres undefined) , thanks.
Result: 629

Query: RBC lookup needed for CC(CN1c2ccccc2Sc2ccccc21)N(C)C (centres undefined) , thanks.
Result: 633.4

Query: RBC lookup needed for CN(C)[C@@H]1C(O)=C(C(N)=O)C(=O)[C@@]2(O)C(O)=C3C(=O)c4c(O)cccc4[C@@](C)(O)[C@H]3C[C@@H]12 , thanks.
Result: 629.6

###

Known MCV of a selection of compounds
Species on record: Rattus norvegicus
Assay: Open TG-GATES - Regimen: Daily Repeat
Type: toxicity, organism-based, Sprague-Dawley
Design: regimen Daily Repeat, gender Male, age 6 weeks
Conditions: in vivo, po, 0 mg/kg, 72 h, tissue Blood, route gavage, dose level Control, time 3 day
Quick reminder: number only, in fL, skip the unit.

>>> value_measured("CC(=O)Nc1nnc(S(N)(=O)=O)s1 [ACETAZOLAMIDE]")
62.8
>>> value_measured("CN1C(C(=O)Nc2ccccn2)=C(O)c2sc(Cl)cc2S1(=O)=O")
62.6
>>> value_measured("C1CCC(C(CC2CCCCN2)C2CCCCC2)CC1 (centres undefined)")
63.9

Now, please, on to the next compound.
Query: MCV lookup needed for Clc1c(Cl)c(Cl)c(Cl)c(Cl)c1Cl , thanks.
Result: 65.6

###

Organism: Rattus norvegicus
Assay: Open TG-GATES - Regimen: Daily Repeat
Type: toxicity, organism-based, Sprague-Dawley
Design: regimen Daily Repeat, gender Male, age 6 weeks
Settings: in vivo, po, 0 mg/kg, […], tissue Blood, route gavage, dose level Control, time 28 day
observed_property: MCH

>>> value_measured("O=C(O)Cc1ccccc1Nc1c(Cl)cccc1Cl")
"20.1 pg"
>>> value_measured("CC(CN1c2ccccc2Sc2ccccc21)N(C)C (stereo not drawn)")
"19.9 pg"

Query: MCH lookup needed for Cc1cccc(Nc2ccccc2C(=O)O)c1C , thanks.
Result: 20.1 pg

Query: MCH lookup needed for CN(C)[C@@H]1C(O)=C(C(N)=O)C(=O)[C@@]2(O)C(O)=C3C(=O)c4c(O)cccc4[C@@](C)(O)[C@H]3C[C@@H]12 , thanks.
Result: 19.6 pg

Query: MCH lookup needed for CN1C(C(=O)Nc2ccccn2)=C(O)c2sc(Cl)cc2S1(=O)=O , thanks.
Result: 20.1 pg

Query: MCH lookup needed for Clc1c(Cl)c(Cl)c(Cl)c(Cl)c1Cl , thanks.
Result: 19.3 pg

Query: MCH lookup needed for CC(=O)Nc1nnc(S(N)(=O)=O)s1 [ACETAZOLAMIDE] , thanks.
Result: 19 pg

Query: MCH lookup needed for CCOC(=O)[C@H](CCc1ccccc1)N[C@@H](C)C(=O)N1CCC[C@H]1C(=O)O , thanks.
Result: 19.3 pg
